Data origin, for the record: BindingDB's records for doi:10.1016/s0960-894x(01)00497-8

Assay: Inhibitory activity against alpha-L-Fucosidase of bovine epididymis expressed as Ki
quantity: Ki (µM)
Field: numeric (µM). Do not append units.

What value of measured Ki is listed for COC(=O)c1cc(C2NCC(O)C2O)oc1C (stereo unspecified) ? 6.5

---

Target: alpha-L-fucosidase (Bacillus sp. K40T)
Test: Inhibitory activity against alpha-L-fucosidase of bacillus species (K40T) expressed as Ki
quantity: pKi
pKi is a log-scale quantity: -log10 of the concentration expressed in molar.

What value of measured pKi is listed for C=CCOC1OC(CO)C(O)C(O)[C@H]1OC1SC(C)C(O)[C@@H](O)C1O (stereo partly specified) ? 6.68

---

Test: Inhibitory concentration against alpha-L-Fucosidase of human placenta
Below is a list of entries, each paired with its recorded pKi value.
pKi is a log-scale quantity: -log10 of the concentration expressed in molar.

Completed entries (count: 3):
compound	result
CC1NC(S(=O)(=O)O)C(O)C1O (stereo unspecified)	8.00
C[C@@H]1N[C@@H](CO)[C@H](O)[C@@H]1O	5.85
CC1NCC(O)C1O (stereo unspecified)	5.70

What value of measured pKi is listed for CCCCNC1N[C@@H](CO)C(O)[C@@H](O)[C@@H](CO)N1 (stereo partly specified) ? 5.55

What value of measured pKi is listed for CC1C(N)C(O)[C@H](O)C1O (stereo partly specified) ? 4.82

---

Assay: Inhibitory activity against alpha-L-fucosidase of bovine epididymis expressed as Ki
quantity: pKi
pKi is a log-scale quantity: -log10 of the concentration expressed in molar.

What value of measured pKi is listed for OC1CN(Cc2ccccc2)C[C@@H](O)C(O)C1O (stereo partly drawn) [(R)-1-Benzyl-azepane-3,4,5,6-tetraol] ? 4.63

---

Below is a list of entries, each paired with its recorded Ki value.
Assay: Inhibitory concentration against alpha-L-Fucosidase of human placenta
Give the number first and the unit second.

Completed entries (count: 3):
molecule	quantity	result
CC1N=C(NN)[C@@H](O)[C@H](O)C1O (stereo partly specified)	Ki	820 nM
CC1C(NCc2ccccc2)C(O)[C@H](O)C1O (stereo partly specified)	Ki	680 nM
C[C@H]1N[C@H](CO)[C@H](O)[C@@H]1O	Ki	9000 nM

What value of measured Ki is listed for CC1SC(Sc2ccc([N+](=O)[O-])cc2)C(O)[C@H](O)C1O (stereo partly specified) ? 3300 nM

What value of measured Ki is listed for CC1CN[C@@H](N)[C@H](O)C1O (stereo partly specified) ? 16 nM

What value of measured Ki is listed for CC(=O)NCC1NCC(O)[C@@H](O)[C@@H]1O (stereo partly specified) ? 4000 nM
